# target.of.assay: T1, rat Y1 receptor (rat, UniProt P21555 1-382)
# T1 construct: whole, on cells; also called rY1
# T1 sequence (looked up): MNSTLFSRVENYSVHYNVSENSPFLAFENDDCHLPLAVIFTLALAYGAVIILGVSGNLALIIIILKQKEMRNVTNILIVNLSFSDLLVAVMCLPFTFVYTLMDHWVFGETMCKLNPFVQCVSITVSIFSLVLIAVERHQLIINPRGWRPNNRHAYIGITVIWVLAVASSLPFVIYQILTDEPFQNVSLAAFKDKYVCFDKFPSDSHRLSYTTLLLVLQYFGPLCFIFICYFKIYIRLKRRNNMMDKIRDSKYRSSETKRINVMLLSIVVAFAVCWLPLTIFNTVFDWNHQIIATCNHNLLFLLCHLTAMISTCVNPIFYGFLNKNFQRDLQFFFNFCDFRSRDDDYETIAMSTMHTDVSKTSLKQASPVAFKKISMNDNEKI
# assay.overview: 125I-PYY displacement, COS-7 membranes
Ends that are not written are not given here.
measure: Ki (nM)

{"binder": "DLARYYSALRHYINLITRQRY (peptide, UniProt P01304 25-45, looked up, range 16-36; Range counted on the mature peptide) [porcine NPY16-36]", "Ki (nM)": 140}
{"binder": "FLRF (C-terminal amide) [FLRF-amide]", "Ki (nM)": 45000}
{"binder": "SPEELNRYYASLRHYLNLVTRQRY (peptide, UniProt P10082 41-64, looked up, range 13-36; Range counted on the mature peptide) [human PYY13-36]", "Ki (nM)": 130}

I = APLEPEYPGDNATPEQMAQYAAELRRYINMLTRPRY (peptide, UniProt P01302 30-65, looked up, mature; also called PP, bovine) [bovine PP]
II = APSEPHHPGDQATQDQLAQYYSDLYQYITFVTRPRF (ends and bridges not checked) [frog PP (rana temporaria)]
III = PAEDLARYYSALRHYINLITRQRY (peptide, UniProt P01304 22-45, looked up, range 13-36; Range counted on the mature peptide; also called NPY13-36, porcine) [porcine NPY13-36]
Problem: Ordering: ascending Ki. Lab note: final answer is the ordered label list.
Result: I, III, II
